- Test system: SK-N-SH human neuroblastoma cells
- Assay text: Serum Deprivation/JC-1 Mitochondrial Membrane Potential (MMP) Assay
- Format: cell-based
- Test conditions: Homo sapiens, SK-N-SH, 18 h, serum deprivation ~18 hours, JC-1 ratio normalized to peak value for 10 μM dimebolin, single curve fit to mean data of n=2-3
- Description: The method also involves a high-throughput assay using serum-deprivation conditions involving neuronal cells to screen for compounds that increase or preserve mitochondrial membrane potential. Such compounds can be found to aid in rescuing cells from energy-depletion that occurs in several neurodegenerative states. […]
Measured log10(EC50), listed per entry.
Units before log transform: µM; reported quantity: EC50; transform: log10.

Example cases with answers are listed next.
| Compound | log10(EC50) |
| --- | --- |
| CN1CCN2c3ccccc3CN(Cc3ccc(Br)cc3)CC2C1 (centres unmarked) | 1.01 |
| c1ccc(CN2CCN3c4ccccc4CN(Cc4cccnc4)CC3C2)cc1 (centres unmarked) | 0.98 |
| O=C(Cc1ccc(Cl)cc1)N1CCC2CN(Cc3ccccc3)CCN2c2ccccc21 (centres unmarked) | 0.65 |

Could you now consider this next compound?
Prompt line: May I ask what log10(EC50) has been recorded for Clc1ccccc1CN1Cc2ccccc2N2CCN(Cc3ccccc3)CC2C1 (centres unmarked) ?
Response line: 0.50

====

- System: SK-N-SH human neuroblastoma cells
- Assay text: Serum Deprivation/JC-1 Mitochondrial Membrane Potential (MMP) Assay
- Assay type: cell-based
- Test conditions: Homo sapiens, single dose 3 μM, JC-1 ratio normalized to peak value for 10 μM dimebolin (n=2-4), serum deprivation, read-out: JC-1 max % (@ 3 μM)
- Description: The method also involves a high-throughput assay using serum-deprivation conditions involving neuronal cells to screen for compounds that increase or preserve mitochondrial membrane potential. Such compounds can be found to aid in rescuing cells from energy-depletion that occurs in several neurodegenerative states. […]
Property: activation at 3 µM

Prompt line: May I ask what activation at 3 µM has been recorded for N#CCCN(C(=O)N1Cc2ccccc2N2CCN(Cc3ccccc3)CC2C1)C1CC1 (stereo not drawn) [Example 153] ?
Response line: 68%

Prompt line: Queued: NCCc1cn(C(=O)N2Cc3ccccc3N3CCN(Cc4ccccc4)CC3C2)cn1 (stereo not drawn) [Example 154]
Response line: 49%

Prompt line: Queued: CC(=O)N1CCC(C(=O)N2Cc3ccccc3N3CCN(Cc4ccccc4)CC3C2)CC1 (stereo not drawn) [Example 84]
Response line: 183%

Prompt line: Queued: CCN(CCOC)C(=O)N1Cc2ccccc2N2CCN(Cc3ccccc3)CC2C1 (stereo not drawn) [Example 157]
Response line: 264%

====

Measured EC50, listed per entry.
- Tested on: SK-N-SH human neuroblastoma cells
- Assay text: Serum Deprivation/JC-1 Mitochondrial Membrane Potential (MMP) Assay
- Type: cell-based
- Test conditions: Homo sapiens, SK-N-SH, 18 h, serum deprivation ~18 hours, JC-1 ratio normalized to peak value for 10 μM dimebolin, single curve fit to mean data of n=2-3
Return type: number; implicit unit µM.

| Compound | EC50, µM |
| --- | --- |
| Fc1ccc(CN2CCN3c4ccccc4CNCC3C2)cc1 (stereo not drawn) [Example 40] | 11.8 |
| O=C(c1ccc[nH]1)N1Cc2ccccc2N2CCN(Cc3ccccc3)CC2C1 (stereo not drawn) [Example 93] | 1.56 |
| c1ccc(CN2CCN3c4ccccc4CN(c4cnccn4)CC3C2)cc1 (stereo not drawn) [Example 11] | 5.61 |

Prompt line: May I ask what EC50 has been recorded for O=C(c1cccnc1)N1CCN2c3ncccc3N(CC3CC3)CCC2C1 (stereo not drawn) [Example 74] ?
Response line: 7.82

Prompt line: Queued: Oc1ccc(CN2Cc3ccccc3N3CCN(Cc4ccccc4)CC3C2)cc1 (stereo not drawn) [Example 50]
Response line: 5.95

Prompt line: Queued: Cc1ccc(CNC(=O)N2Cc3ccccc3N3CCN(Cc4ccccc4)CC3C2)o1 (stereo not drawn) [Example 156]
Response line: 2.4

Prompt line: Queued: O=C(c1ccc(Br)cc1)N1CCC2CN(Cc3ccccc3)CCN2c2ccccc21 (stereo not drawn) [Example 41]
Response line: 4.67
